Every entry's value here was drawn from ChEMBL document CHEMBL1141640.

- subject.of.test: 5-hydroxytryptamine receptor 2A (Homo sapiens)
- Sequence (P28223 whole entry): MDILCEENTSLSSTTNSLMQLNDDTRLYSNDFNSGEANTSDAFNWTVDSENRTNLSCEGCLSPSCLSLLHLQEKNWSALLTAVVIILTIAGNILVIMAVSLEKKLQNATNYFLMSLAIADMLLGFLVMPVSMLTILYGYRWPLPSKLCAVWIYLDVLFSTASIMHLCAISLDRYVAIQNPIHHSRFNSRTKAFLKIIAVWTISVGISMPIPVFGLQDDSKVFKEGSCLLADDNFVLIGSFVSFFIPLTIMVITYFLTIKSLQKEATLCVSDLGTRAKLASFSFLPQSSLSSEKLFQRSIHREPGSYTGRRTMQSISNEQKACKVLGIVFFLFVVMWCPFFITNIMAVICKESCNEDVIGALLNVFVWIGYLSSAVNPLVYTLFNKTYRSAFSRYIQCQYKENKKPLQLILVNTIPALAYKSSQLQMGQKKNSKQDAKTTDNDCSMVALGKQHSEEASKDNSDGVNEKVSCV
quantity.kind: Ki (µM)
Reply numerically in µM, unit not repeated.

Q) 5-hydroxytryptamine receptor 2A (Homo sapiens) / Ki / C[C@@H]1NC(NCC(F)F)=Nc2cccc(Cl)c21 : value?
A) 0.491

---

- assay.explanation: Tmax in mouse at 10 mg/kg, po
- Format: ADME, organism-based
- Parameters: dose 10 mg/kg, route oral
- measurement.setup: in vivo
quantity.kind: Tmax (min)
Reply numerically in min, unit not repeated.

Q) Any idea what Tmax was measured for CC1NC(N)=Nc2cccc(Cl)c21 (stereo unspecified) ?
A) 45

---

- subject.of.test: UniProt:P28335
- assay.explanation: Binding affinity to human 5HT2C receptor
Listed next: entries and their corresponding Ki.
Reply numerically in nM, unit not repeated.

In [3]: df
Out[3]:
                               smiles  result_number
0  C[C@@H]1NC(NCC(F)F)=Nc2cccc(Cl)c21            352

Would you kindly look at the next entry?
Q) Any idea what Ki was measured for C[C@@H]1NC(N)=Nc2cccc(Cl)c21 ?
A) 55

---

- subject.of.test: 5-hydroxytryptamine receptor 2C (Homo sapiens, UniProt P28335)
- Sequence (P28335 whole entry): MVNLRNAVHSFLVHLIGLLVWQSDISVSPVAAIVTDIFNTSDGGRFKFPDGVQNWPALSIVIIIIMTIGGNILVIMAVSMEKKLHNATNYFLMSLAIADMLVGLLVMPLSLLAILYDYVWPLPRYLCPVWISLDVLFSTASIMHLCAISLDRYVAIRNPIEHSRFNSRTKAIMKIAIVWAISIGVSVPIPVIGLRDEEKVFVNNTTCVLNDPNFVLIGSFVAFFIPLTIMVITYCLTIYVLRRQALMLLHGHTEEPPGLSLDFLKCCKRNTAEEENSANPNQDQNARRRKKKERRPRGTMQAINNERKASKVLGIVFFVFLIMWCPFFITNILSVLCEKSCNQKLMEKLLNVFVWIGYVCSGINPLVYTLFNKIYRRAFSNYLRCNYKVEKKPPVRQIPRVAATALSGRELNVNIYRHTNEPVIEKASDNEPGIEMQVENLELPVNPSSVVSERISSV
- assay.explanation: Binding affinity to 5HT2C receptor
Listed next: entries and their corresponding pKi.
Lab note: report pKi as minus log10 of the concentration in molar units, number only.

                                   compound  result_number
0    C[C@@H]1NC(NCC(F)F)=Nc2ccc(Cl)c(Cl)c21           6.92
1  COc1c(Cl)ccc2c1C(C)NC(NCC(F)F)=N2 (stereo not drawn)           6.63
2  CC1NC(NCC(F)F)=Nc2cccc(Cl)c21 (stereo not drawn)           6.40
3  CC1NC(NCC(F)F)=Nc2c(Cl)ccc(Cl)c21 (stereo not drawn)           6.17
4  COc1cccc2c1N=C(NCC(F)F)NC2C (stereo not drawn)           5.78
5  CC1NC(NCC(F)F)=Nc2ccc(Cl)c(Cl)c21 (stereo not drawn)           6.79
6  CC(C)Oc1cccc2c1N=C(NCC(F)F)NC2C (stereo not drawn)           5.67

Would you kindly look at the next entry?
Q) Any idea what pKi was measured for C[C@H]1NC(NCC(F)F)=Nc2ccc(Cl)c(Cl)c21 ?
A) 6.62

---

- assay.explanation: Ratio of drug level in brain to plasma in mouse at 6.6 mg/kg, po
- Assay type: ADME, organism-based
- Set-up: dose 6.6 mg/kg, route oral
quantity.kind: Kp
Lab note: jot the number down without any unit.

Q) Any idea what Kp was measured for CC1NC(NCC(F)F)=Nc2cccc(Cl)c21 (stereo unspecified) ?
A) 4

---

- subject.of.test: 5-hydroxytryptamine receptor 1A (Homo sapiens, UniProt P08908)
- Sequence (P08908 whole entry): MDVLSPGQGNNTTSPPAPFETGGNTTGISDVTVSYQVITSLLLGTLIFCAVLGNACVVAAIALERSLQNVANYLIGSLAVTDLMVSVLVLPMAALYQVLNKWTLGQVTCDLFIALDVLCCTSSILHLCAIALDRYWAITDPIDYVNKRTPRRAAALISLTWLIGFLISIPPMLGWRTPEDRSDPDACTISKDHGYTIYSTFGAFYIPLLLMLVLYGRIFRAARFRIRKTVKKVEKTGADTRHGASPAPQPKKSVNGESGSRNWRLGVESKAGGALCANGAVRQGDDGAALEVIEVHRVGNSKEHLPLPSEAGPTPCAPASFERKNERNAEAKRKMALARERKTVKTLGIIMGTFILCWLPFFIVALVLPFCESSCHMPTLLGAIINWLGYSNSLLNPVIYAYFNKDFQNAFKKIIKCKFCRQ
- assay.explanation: Binding affinity to 5HT1A receptor
quantity.kind: log10 Ki (log10 of the value in nM)
Reminder: these figures are log10 of reported Ki, in nM before transformation.

The examples below pair each entry with its known result.
                                   molecule                           subject_of_test  result_number
0  COc1c(Cl)ccc2c1C(C)NC(NCC(F)F)=N2 (stereo not drawn)  5-hydroxytryptamine receptor 1A (Homo sapiens, UniProt P08908)           2.54
1  CC1NC(NCC(F)F)=Nc2ccc(Cl)c(Cl)c21 (stereo not drawn)  5-hydroxytryptamine receptor 1A (Homo sapiens, UniProt P08908)           2.09
2  CC1NC(NCC(F)F)=Nc2c(Cl)ccc(Cl)c21 (stereo not drawn)  5-hydroxytryptamine receptor 1A (Homo sapiens, UniProt P08908)           1.94
3    C[C@@H]1NC(NCC(F)F)=Nc2ccc(Cl)c(Cl)c21  5-hydroxytryptamine receptor 1A (Homo sapiens, UniProt P08908)           1.88

Q) Any idea what log10 Ki was measured for C[C@H]1NC(NCC(F)F)=Nc2ccc(Cl)c(Cl)c21 ?
A) 2.79

Q) Any idea what log10 Ki was measured for CC1NC(NCC(F)F)=Nc2cccc(Cl)c21 (stereo not drawn) ?
A) 1.93

Q) Any idea what log10 Ki was measured for COc1cccc2c1N=C(NCC(F)F)NC2C (stereo not drawn) ?
A) 1.72

Q) Any idea what log10 Ki was measured for CC(C)Oc1cccc2c1N=C(NCC(F)F)NC2C (stereo not drawn) ?
A) 2.38
